Cited source for all entries: PubChem BioAssay

test: yeast V-ATPase proton transport modulators, S. cerevisiae, pHLuorin, HTS validation (AID 504600);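 further: plate controls were DMSO for no effect and reference compound for full effect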; settings: S. cerevisiae pHLuorin cytosolic pH, at 10 µM
The source made the active and inactive calls. No stated cut-off is given here; in the data, active means response above about 15%; inactive means the rest.
Hi there, use one of these labels in your reply, thanks! label 1 for active, label 0 for inactive

COMPOUND	LABEL CLASS
C[C@@]1(CO)[C@H](O)CC[C@@]2(C)[C@H]1CC[C@H]1C[C@@H]3C[C@@]12CC[C@]3(O)CO	label 0
OCc1cnc[nH]1	label 0
CC(=O)OC1C2CCC1C(N1CCCC1)CC2 (stereo not drawn)	label 0

*Q* Test call for this compound, please: [N-]=[N+]=NC1C[C@H](n2ccc(=O)[nH]c2=O)O[C@@H]1CO (stereo partly drawn)
*A* label 0

*Q* Hi, do you know how "CCC1(c2ccccc2)C(=O)N(COC)C(=O)N(COC)C1=O" came out in this test?
*A* label 0

*Q* For "CC(=O)c1ccc(-c2ccccc2)cc1" , what call appears in the results of this test?
*A* label 0
